tested on: HEK-293T; test: Multiplex assay against HEK293T; format: toxicity, cell-based; conditions: human, 24 h, 10 µM, compound concentration 10 uM, replicate 2
Lab note: anything with Population Hoechst High Intensity Objects (%) below 3% is marked y; values at 3% or higher are marked n.

Request: For O=C(Cc1ccc(-c2ccc(OCCN3CCOCC3)cc2)cn1)NCc1ccccc1 , is the recorded Population Hoechst High Intensity Objects (%) below the cut-off of 3%?
Result: n

Request: # strict comparison: is reported Population Hoechst High Intensity Objects (%) < 3%? input = Cc1ccc2nc(NCCN)c3ncc(C)n3c2c1.O=C(O)C(F)(F)F.O=C(O)C(F)(F)F
Result: n

Request: Item Cl.O=c1c2cccn2c2ccccc2n1CCCN1CCC(c2ccc(Cl)cc2)CC1 : Population Hoechst High Intensity Objects (%) beneath 3%, strictly?
Result: n

Request: Population Hoechst High Intensity Objects (%) under 3%? Item: Cc1cn(-c2cc(NC(=O)c3ccc(C)c(Nc4nccc(-c5cccnc5)n4)c3)cc(C(F)(F)F)c2)cn1
Result: y

Request: API: query returns whether the compound falls strictly under 3% in Population Hoechst High Intensity Objects (%). Query: COc1cc2ncnc(Nc3ccc(F)c(Cl)c3)c2cc1NC(=O)/C=C/CN1CCCCC1 [DACOMITINIB ANHYDROUS]
Result: y

Request: Decide: Population Hoechst High Intensity Objects (%) of COc1cc(N2CCN(C)CC2)ccc1Nc1ncc2c(n1)N(C)c1ccccc1C(=O)N2C strictly below 3%?
Result: n

Request: Is 3% strictly greater than the compound's reported Population Hoechst High Intensity Objects (%)? compound: O=C(Nc1ccc(Cl)cc1)Nc1cccc(-c2cccc(N3CCCC3)n2)c1
Result: n

Request: Item COCC(=O)NC/C=C/c1ccc2ncnc(Nc3ccc(Oc4ccc(C)nc4)c(C)c3)c2c1 : Population Hoechst High Intensity Objects (%) beneath 3%, strictly?
Result: n

Request: Hello, is Population Hoechst High Intensity Objects (%) of the following compound strictly smaller than 3%? CCc1cccc(CC)c1NC(=O)c1nn(C)c2c1CCc1cnc(Nc3ccc(C(=O)NC4CCN(C)CC4)cc3OC(F)(F)F)nc1-2
Result: n

Request: # check: Population Hoechst High Intensity Objects (%) < 3% for S=C(NCCCc1c[nH]cn1)NCCCN(Cc1ccc(Cl)c(Cl)c1)c1ccc(Br)cn1
Result: n

Request: Criterion: Population Hoechst High Intensity Objects (%) strictly below 3%. Is it met by CCn1cc(-c2ccnc3[nH]c(-c4cccc(CN(C)C)c4)cc23)c(-c2ccc(NC(=O)N(C)C)cc2)n1 ?
Result: n

----------
test system: Fibroblast; assay: Multiplex assay against human fibroblast; assay type: toxicity, cell-based; conditions: 24 h, 1 µM, compound concentration 1 uM, replicate 2
readout: Population Pyknosed Nuclei (%)
Output spec: scalar in %, unitless text.

Request: Bench note: what Population Pyknosed Nuclei (%) did Cc1cc(C)c(S(=O)(=O)N(Cc2ccc(-c3cccc(S(C)(=O)=O)c3)cc2)Cc2ccc(C(F)(F)F)o2)c(C)c1 show?
Result: 5

Request: Reported Population Pyknosed Nuclei (%), compound CN1C2CCC1CC(OC(c1ccc(F)cc1)c1ccc(F)cc1)C2.Cl (stereo not drawn) : ____
Result: 6

Request: # input compound: Cc1ccc2nc(NCCN)c3ncc(C)n3c2c1.O=C(O)C(F)(F)F.O=C(O)C(F)(F)F ; wanted: its Population Pyknosed Nuclei (%)
Result: 8

Request: Consider the compound CN(C)C(=O)C(CCN1CCC(O)(c2ccc(Cl)cc2)CC1)(c1ccccc1)c1ccccc1.Cl [LOPERAMIDE HYDROCHLORIDE] and give its measured Population Pyknosed Nuclei (%).
Result: 22

Request: Which Population Pyknosed Nuclei (%) is listed for Cl.O=c1c2cccn2c2ccccc2n1CCCN1CCC(c2ccc(Cl)cc2)CC1 ?
Result: 13

Request: Please report the recorded Population Pyknosed Nuclei (%) for CCN1CCN(Cc2ccc(Nc3ncc(F)c(-c4cc(F)c5nc(C)n(C(C)C)c5c4)n3)nc2)CC1.CS(=O)(=O)O .
Result: 17

Request: // query Population Pyknosed Nuclei (%) value for entry CNc1cc(Oc2cc(C(=O)Nc3cc(N4CCN(C)CC4)cc(C(F)(F)F)c3)ccc2C)ncn1
Result: 19

Request: GET /values?readout=Population Pyknosed Nuclei (%)&item= CCN1CCN(c2ccc(Nc3cc(N(C)C(=O)Nc4c(Cl)c(OC)cc(OC)c4Cl)ncn3)cc2)CC1
Result: 12

----------
tested on: Fibroblast; experiment: Multiplex assay against human fibroblast; assay type: toxicity, cell-based; conditions: 12 h, 1 µM, compound concentration 1 uM, replicate 1
I'd be grateful if you could share measured Population Mitochondria Different-Phenotype (%) for these entries.
State the answer as a number, implicitly in %.

Request: What value of measured Population Mitochondria Different-Phenotype (%) is listed for COc1cc(N2CCN(C)CC2)ccc1Nc1ncc2c(n1)N(C)c1ccccc1C(=O)N2C ?
Result: 12

Request: What measured Population Mitochondria Different-Phenotype (%) goes with CCCS(=O)(=O)c1nc(NC2CC2)cc(-c2ccc3c(ccn3C3CC(C)(C)NC(C)(C)C3)c2)n1 ?
Result: 0

Request: Returns the measured Population Mitochondria Different-Phenotype (%) for the input compound. Input: COc1cc2ncnc(Nc3ccc(F)c(Cl)c3)c2cc1NC(=O)/C=C/CN1CCCCC1 [DACOMITINIB ANHYDROUS]
Result: 8

Request: Can you look up the measured Population Mitochondria Different-Phenotype (%) of CNc1cc(Oc2cc(C(=O)Nc3cc(N4CCN(C)CC4)cc(C(F)(F)F)c3)ccc2C)ncn1 for me?
Result: 17

Request: What does the record list as Population Mitochondria Different-Phenotype (%) for CCCn1c(=O)c2[nH]c(-c3cnn(Cc4cccc(C(F)(F)F)c4)c3)nc2n(CC)c1=O ?
Result: 14

Request: Recorded Population Mitochondria Different-Phenotype (%) of CCN1CCN(c2ccc(Nc3cc(N(C)C(=O)Nc4c(Cl)c(OC)cc(OC)c4Cl)ncn3)cc2)CC1 , please.
Result: 12

Request: Given Cl.Oc1ccc2c3c1O[C@H]1c4[nH]c5c(c4C[C@@]4(O)[C@@H](C2)N(CC2CC2)CC[C@]314)C[C@@]1(O)[C@H]2Cc3ccc(O)c4c3[C@@]1(CCN2CC1CC1)[C@H]5O4 , state its recorded Population Mitochondria Different-Phenotype (%).
Result: 11

Request: Please give the measured Population Mitochondria Different-Phenotype (%) for this compound: CCCS(=O)(=O)Nc1ccc(F)c(C(=O)c2c[nH]c3ncc(Cl)cc23)c1F
Result: 6

----------
system: HEK-293T; experiment: Multiplex assay against HEK293T; format: toxicity, cell-based; conditions: human, 12 h, 10 µM, compound concentration 10 uM, replicate 2
Classes are defined on Population Hoechst High Intensity Objects (%) with ranges low group (below 3%), middle group (3% to below 7%), high group (7% or more)

Request: Would you mind sorting NC(=O)c1cccc(-c2cc(Nc3ccc(OC(F)(F)F)cc3)ncn2)c1 into the appropriate category?
Result: low group

Request: Quick check: band for CCN1CCN(c2ccc(Nc3cc(N(C)C(=O)Nc4c(Cl)c(OC)cc(OC)c4Cl)ncn3)cc2)CC1
Result: low group

Request: Could you place CCCS(=O)(=O)c1nc(NC2CC2)cc(-c2ccc3c(ccn3C3CC(C)(C)NC(C)(C)C3)c2)n1 in its proper category? Many thanks.
Result: high group

Request: Returns: class label. Input: COc1ccc(-c2ccc3c(N4CCOCC4)nc(N4C[C@@H](C)O[C@@H](C)C4)nc3n2)cc1CO
Result: high group

Request: Which Population Hoechst High Intensity Objects (%) category applies to CNc1cc(Oc2cc(C(=O)Nc3cc(N4CCN(C)CC4)cc(C(F)(F)F)c3)ccc2C)ncn1 here?
Result: high group

Request: Could you place COCC(=O)NC/C=C/c1ccc2ncnc(Nc3ccc(Oc4ccc(C)nc4)c(C)c3)c2c1 in its proper category? Many thanks.
Result: middle group

Request: Exam item: assign S=C(NCCCc1c[nH]cn1)NCCCN(Cc1ccc(Cl)c(Cl)c1)c1ccc(Br)cn1 to the correct category.
Result: middle group

Request: Class (by measured Population Hoechst High Intensity Objects (%)) for O=C(Nc1cccnn1)N1CCC(=Cc2cccc(Oc3ccc(C(F)(F)F)cn3)c2)CC1
Result: low group

Request: Quick check: band for CCCS(=O)(=O)Nc1ccc(F)c(C(=O)c2c[nH]c3ncc(Cl)cc23)c1F
Result: low group

Request: Please let me know in which category the item COc1cccc2cc(-c3nc([C@H]4CC[C@H](C(=O)O)CC4)n4ncnc(N)c34)[nH]c12 belongs.
Result: middle group

Request: Which Population Hoechst High Intensity Objects (%) band matches CCOC(=O)c1c(C)[nH]c2ccc3c(c12)CN1CCc2cc(OC)ccc2C1O3 (configuration not stated) ?
Result: high group

Request: Would you mind sorting CCOc1cc2ncc(C#N)c(Nc3ccc(OCc4ccccn4)c(Cl)c3)c2cc1NC(=O)/C=C/CN(C)C into the appropriate category?
Result: high group

Request: In plain terms, what class is CN1CCC(=C2c3ccccc3CC(=O)c3sccc32)CC1.O=C(O)/C=C/C(=O)O [KETOTIFEN FUMARATE] ?
Result: middle group

Request: Kindly identify the class of CCCn1c(=O)c2[nH]c(-c3cnn(Cc4cccc(C(F)(F)F)c4)c3)nc2n(CC)c1=O .
Result: low group

Request: Which Population Hoechst High Intensity Objects (%) category applies to CCc1cccc(CC)c1NC(=O)c1nn(C)c2c1CCc1cnc(Nc3ccc(N4CCN(C)CC4)cc3OC)nc1-2 here?
Result: low group

Request: Using the reported Population Hoechst High Intensity Objects (%), which band applies to Cl.Oc1ccc2c3c1O[C@H]1c4[nH]c5c(c4C[C@@]4(O)[C@@H](C2)N(CC2CC2)CC[C@]314)C[C@@]1(O)[C@H]2Cc3ccc(O)c4c3[C@@]1(CCN2CC1CC1)[C@H]5O4 ?
Result: low group

Request: Lab log: CCN1CCN(Cc2ccc(Nc3ncc(F)c(-c4cc(F)c5nc(C)n(C(C)C)c5c4)n3)nc2)CC1.CS(=O)(=O)O — assign Population Hoechst High Intensity Objects (%) category
Result: high group

Request: Looking at Cc1cc(C)c(S(=O)(=O)N(Cc2ccc(-c3cccc(S(C)(=O)=O)c3)cc2)Cc2ccc(C(F)(F)F)o2)c(C)c1 , which class would you pick?
Result: low group

Request: Categorize the following entry: Cc1ccc(C(=O)Nc2cccc(C(F)(F)F)c2)cc1Nc1nc(-c2cccnc2)nc2c1cnn2C
Result: middle group

Request: Please classify: COc1cc(N2CCN(C)CC2)ccc1Nc1ncc2c(n1)N(C)c1ccccc1C(=O)N2C
Result: middle group

Request: # bin lookup: classify CCn1cc(-c2ccnc3[nH]c(-c4cccc(CN(C)C)c4)cc23)c(-c2ccc(NC(=O)N(C)C)cc2)n1 by its Population Hoechst High Intensity Objects (%)
Result: high group

Request: The entry to classify is CCn1c(=O)c(-c2ccc(-c3cncs3)cc2Cl)cc2cnc(Nc3ccc(N4CCN(C)CC4)cc3)nc21 ; which class holds it?
Result: middle group

Request: Lab note: which band did O=C(Nc1ccc(Cl)cc1)Nc1cccc(-c2cccc(N3CCCC3)n2)c1 land in?
Result: high group

Request: Class? Entry: O=C1NC(=O)C(c2cnc3ccccn23)=C1c1cn2c3c(cc(F)cc13)CN(C(=O)N1CCCCC1)CC2
Result: high group

Request: Form field 'band' for Cl.O=c1c2cccn2c2ccccc2n1CCCN1CCC(c2ccc(Cl)cc2)CC1
Result: high group

Request: Kindly identify the class of Cn1nc(C(F)(F)F)cc1-c1cnc(N2CCc3cc(S(=O)(=O)Nc4c(F)cc(Cl)cc4F)cc(N4CCCC4=O)c32)nc1 .
Result: low group

Request: Consider Cc1ccc2nc(NCCN)c3ncc(C)n3c2c1.O=C(O)C(F)(F)F.O=C(O)C(F)(F)F . To which Population Hoechst High Intensity Objects (%) class does it belong?
Result: middle group

Request: Form field 'band' for O=C(Nc1ccc(-c2ccnc(Nc3ccc(N4CCOCC4)cc3)n2)cc1)[C@@H]1CCCN1
Result: middle group
